B1: LINE1-mini (parent)
chain: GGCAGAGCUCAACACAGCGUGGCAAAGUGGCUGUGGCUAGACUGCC

Variants of: B1
Experiment: self-cleavage, relative activity (ratio to wild type); higher = more cleavage; in vitro, sequencing; the parent is a self-cleaving ribozyme
assay.readout: self-cleavage
One number for each entry.

Here are 3 variants together with their reported answers.
# mutant, self-cleavage
data = [
    ("G2U G36C", 0.05),
    ("G5C U43G", 0.13),
    ("G1C C18U", 0.05),
]

Below is a list of variants. For each, state its recorded self-cleavage.
1. G1C C31U
2. A16U G22C
3. C10A C18A
4. U9C A14G

Response:
0.04
0.28
0.07
0.03

Below is a list of variants. For each, state its recorded self-cleavage.
1. C15G U20C
2. C8U A25C
3. A25C C45G
4. G2C A25U
5. G21U G30A

Response:
[0.03, 0.21, 0.11, 0.08, 1.81]

Below is a list of variants. For each, state its recorded self-cleavage.
1. G7A C46U
2. G36C A41C

Response:
1. 0.32
2. 0.05

Below is a list of variants. For each, state its recorded self-cleavage.
1. G21U G35C
2. G30C G35U
3. G7A C18A
4. G21C G44A
5. A6C G29C
6. U9C C15G

Response:
[0.13, 0.19, 0.07, 0.34, 0.36, 0.04]

Below is a list of variants. For each, state its recorded self-cleavage.
1. C8G C37A
2. C3G G36U

Response:
0.04
0.2
